List of activation values.
- SYSTEM: CCR2 (Homo sapiens)
- Construct: expressed in transfected cells
- Sequence (P41597 1-360 isoform P41597-2): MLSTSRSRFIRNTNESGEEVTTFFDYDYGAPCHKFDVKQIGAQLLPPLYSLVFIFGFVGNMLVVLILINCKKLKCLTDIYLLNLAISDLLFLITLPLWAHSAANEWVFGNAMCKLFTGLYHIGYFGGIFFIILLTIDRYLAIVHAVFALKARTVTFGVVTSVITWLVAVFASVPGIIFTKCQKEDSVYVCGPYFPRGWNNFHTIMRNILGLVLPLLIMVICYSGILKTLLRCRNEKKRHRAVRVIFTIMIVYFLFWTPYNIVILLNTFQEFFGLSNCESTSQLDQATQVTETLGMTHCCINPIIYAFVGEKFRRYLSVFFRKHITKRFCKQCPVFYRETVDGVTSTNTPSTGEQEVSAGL
- TEST: Figure S2a opioid peptide screen on chemokine receptors
- Format: cell-based
- Set-up: dose or concentration left out as unconfirmed
- CONDITION INFO: replicate 1, read-out: CCR2 activity, ctrl+ = 100
Starred links: 1 amine or outer side, 2 acyl side, 3 side chain; linkers in the order of their positions; H or OH if unused. Non-standard residues stand in square brackets, D forms with d. Residues, ends and D or L forms follow the SMILES beside them. X1 = N[C@@H](Cc1ccccc1)CN(CC(=O)[*:2])[*:1]

Examples from the recorded data:
NC(=O)[C@H](Cc1ccccc1)NC(=O)[C@H](Cc1c[nH]c2ccccc12)NC(=O)[C@@H]1CCCN1C(=O)[C@@H](N)Cc1ccc(O)cc1 [Endomorphin-1]: 0.794%
CC(C)C[C@H](NC(=O)[C@H](CCCCN)NC(=O)[C@H](CCCN=C(N)N)NC(=O)[C@H](C)NC(=O)[C@H](CO)NC(=O)[C@H](CCCCN)NC(=O)[C@H](CCCN=C(N)N)NC(=O)[C@H](C)NC(=O)CNC(=O)[C@@H](NC(=O)[C@H](Cc1ccccc1)NC(=O)CNC(=O)CNC(=O)[C@@H](N)Cc1ccccc1)[C@@H](C)O)C(=O)N[C@@H](C)C(=O)N[C@@H](CC(N)=O)C(=O)N[C@@H](CCC(N)=O)C(=O)O [Nociceptin]: -0.0919%
C[C@H](NC(=O)CNC(=O)[C@@H](NC(=O)[C@H](Cc1ccccc1)NC(=O)CNC(=O)CNC(=O)[C@@H](N)Cc1ccccc1)[C@@H](C)O)C(=O)N[C@@H](CCCNC(=N)N)C(=O)N[C@@H](CCCCN)C(=O)N[C@@H](CO)C(=O)N[C@@H](C)C(=O)N[C@@H](CCCNC(=N)N)C(=O)N[C@@H](CCCCN)C(N)=O [Nociceptin 1-13]: 0.793%

Please examine the following record next.
# C[C@H](NC(=O)CNC(=O)[C@@H](NC(=O)[C@H](Cc1ccccc1)NC(=O)CNC(=O)CNC[C@@H](N)Cc1ccccc1)[C@@H](C)O)C(=O)N[C@@H](CCCNC(=N)N)C(=O)N[C@@H](CCCCN)C(=O)N[C@@H](CO)C(=O)N[C@@H](C)C(=O)N[C@@H](CCCNC(=N)N)C(=O)N[C@@H](CCCCN)C(N)=O [FG Nociceptin 1-13] (H-[X1]GFTGARKSARK-NH2) with CCR2 (Homo sapiens): activation is -0.148%

* * *

- SYSTEM: ACKR3 (Homo sapiens, UniProt P25106)
- Sequence (P25106 whole entry): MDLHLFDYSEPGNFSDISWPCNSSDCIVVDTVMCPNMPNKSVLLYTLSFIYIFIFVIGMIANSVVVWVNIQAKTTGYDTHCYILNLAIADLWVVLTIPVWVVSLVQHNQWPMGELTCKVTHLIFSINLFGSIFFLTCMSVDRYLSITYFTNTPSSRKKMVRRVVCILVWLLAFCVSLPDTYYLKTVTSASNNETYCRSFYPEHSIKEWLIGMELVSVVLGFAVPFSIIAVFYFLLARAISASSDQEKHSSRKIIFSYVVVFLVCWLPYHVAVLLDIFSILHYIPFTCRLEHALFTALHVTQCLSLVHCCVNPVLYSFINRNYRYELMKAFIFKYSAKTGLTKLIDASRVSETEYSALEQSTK
- TEST: cell-based
- Design: dose or concentration left out as unconfirmed
- CONDITION INFO: read-out: ACKR3 activity, ctrl+ = 100, Figure S2a; replicate 2
# activation annotations
Just the number please, in %, no unit attached.

CC[C@H](C)[C@H](NC(=O)[C@H](CCCNC(=N)N)NC(=O)[C@H](CCCNC(=N)N)NC(=O)[C@H](CC(C)C)NC(=O)[C@H](Cc1ccccc1)NC(=O)CNC(=O)CNC(=O)[C@@H](N)Cc1ccc(O)cc1)C(=O)N[C@@H](CCCNC(=N)N)C(=O)N1CCC[C@H]1C(=O)N[C@@H](CCCCN)C(=O)N[C@@H](CC(C)C)C(=O)N[C@@H](CCCCN)C(=O)O: 52.9

Just so you know, measured activation for NC(=O)[C@H](Cc1ccccc1)NC(=O)[C@H](Cc1c[nH]c2ccccc12)NC(=O)[C@@H]1CCCN1C(=O)[C@@H](N)Cc1ccc(O)cc1 [Endomorphin-1] came out at 17

* * *

- SYSTEM: ACKR3 (Homo sapiens, UniProt P25106)
- TEST: cell-based
- Set-up: dose or concentration left out as unconfirmed
- CONDITION INFO: read-out: ACKR3 activity, ctrl+ = 100, Figure S2a; replicate 1
Starred links: 1 amine or outer side, 2 acyl side, 3 side chain; linkers in the order of their positions; H or OH if unused. Non-standard residues stand in square brackets, D forms with d. Residues, ends and D or L forms follow the SMILES beside them. X1 = N[C@@H](Cc1ccccc1)CN(CC(=O)[*:2])[*:1]
ENDPOINT LABEL: activation (%)
Just the number please, in %, no unit attached.

Answered cases to consult:
CC[C@H](C)[C@H](NC(=O)[C@H](CCCNC(=N)N)NC(=O)[C@H](CCCNC(=N)N)NC(=O)[C@H](CC(C)C)NC(=O)[C@H](Cc1ccccc1)NC(=O)CNC(=O)CN)C(=O)N[C@@H](CCCNC(=N)N)C(=O)N1CCC[C@H]1C(=O)N[C@@H](CCCCN)C(=O)N[C@@H](CC(C)C)C(=O)N[C@@H](CCCCN)C(=O)N[C@@H](Cc1c[nH]c2ccccc12)C(=O)N[C@@H](CC(=O)O)C(=O)N[C@@H](CC(N)=O)C(=O)N[C@@H](CCC(N)=O)C(=O)O: 72.7
CC(C)C[C@H](NC(=O)[C@H](Cc1ccccc1)NC(=O)CNC(=O)CNC(=O)[C@@H](N)Cc1ccc(O)cc1)C(=O)N[C@@H](CCCN=C(N)N)C(=O)N[C@@H](CCCN=C(N)N)C(=O)N[C@@H](CCC(N)=O)C(=O)N[C@@H](Cc1ccccc1)C(=O)N[C@@H](CCCCN)C(=O)N[C@H](C(=O)N[C@H](C(=O)N[C@H](C(=O)O)[C@@H](C)O)C(C)C)C(C)C: 87

Now look at this entry.
The measured activation associated with C[C@H](NC(=O)CNC(=O)[C@@H](NC(=O)[C@H](Cc1ccccc1)NC(=O)CNC(=O)CNC[C@@H](N)Cc1ccccc1)[C@@H](C)O)C(=O)N[C@@H](CCCNC(=N)N)C(=O)N[C@@H](CCCCN)C(=O)N[C@@H](CO)C(=O)N[C@@H](C)C(=O)N[C@@H](CCCNC(=N)N)C(=O)N[C@@H](CCCCN)C(N)=O [FG Nociceptin 1-13] (H-[X1]GFTGARKSARK-NH2) reads 61.5

* * *

- SYSTEM: CXCR5 (Homo sapiens, UniProt P32302)
- Construct: expressed in transfected cells
- Sequence (P32302 whole entry): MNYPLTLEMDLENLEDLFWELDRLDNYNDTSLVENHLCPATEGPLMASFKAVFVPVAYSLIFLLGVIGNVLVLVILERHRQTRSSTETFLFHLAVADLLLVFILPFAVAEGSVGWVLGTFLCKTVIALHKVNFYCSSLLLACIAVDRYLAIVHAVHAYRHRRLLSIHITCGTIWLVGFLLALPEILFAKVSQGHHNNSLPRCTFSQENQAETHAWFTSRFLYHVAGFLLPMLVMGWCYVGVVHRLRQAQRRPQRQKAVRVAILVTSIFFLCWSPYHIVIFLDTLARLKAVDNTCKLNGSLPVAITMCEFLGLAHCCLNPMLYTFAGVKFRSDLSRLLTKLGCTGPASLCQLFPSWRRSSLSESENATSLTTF
- TEST: Figure S2a opioid peptide screen on chemokine receptors
- Assay type: cell-based
- Design: dose or concentration left out as unconfirmed
- CONDITION INFO: replicate 2, read-out: CXCR5 activity, ctrl+ = 100
ENDPOINT LABEL: activation

CC[C@H](C)[C@H](NC(=O)[C@H](CCCNC(=N)N)NC(=O)[C@H](CCCNC(=N)N)NC(=O)[C@H](CC(C)C)NC(=O)[C@H](Cc1ccccc1)NC(=O)CNC(=O)CNC(=O)[C@@H](N)Cc1ccc(O)cc1)C(=O)N[C@@H](CCCNC(=N)N)C(=O)N1CCC[C@H]1C(=O)N[C@@H](CCCCN)C(=O)N[C@@H](CC(C)C)C(=O)N[C@@H](CCCCN)C(=O)N[C@@H](Cc1c[nH]c2ccccc12)C(=O)N[C@@H](CC(=O)O)C(=O)N[C@@H](CC(N)=O)C(=O)N[C@@H](CCC(N)=O)C(=O)O: -4.52%
CC[C@H](C)[C@H](NC(=O)[C@H](CCCNC(=N)N)NC(=O)[C@H](CCCNC(=N)N)NC(=O)[C@H](CC(C)C)NC(=O)[C@H](Cc1ccccc1)NC(=O)CNC(=O)CN)C(=O)N[C@@H](CCCNC(=N)N)C(=O)N1CCC[C@H]1C(=O)N[C@@H](CCCCN)C(=O)N[C@@H](CC(C)C)C(=O)N[C@@H](CCCCN)C(=O)N[C@@H](Cc1c[nH]c2ccccc12)C(=O)N[C@@H](CC(=O)O)C(=O)N[C@@H](CC(N)=O)C(=O)N[C@@H](CCC(N)=O)C(=O)O: -3.33%

API: the following record is the query input.
// recorded activation for `CSCC[C@H](NC(=O)[C@H](Cc1ccccc1)NC(=O)CNC(=O)CNC(=O)[C@@H](N)Cc1ccc(O)cc1)C(=O)N[C@@H](CCCNC(=N)N)C(=O)N[C@@H](CCCNC(=N)N)C(=O)N[C@H](C(N)=O)C(C)C` : -4.15%

* * *

- SYSTEM: ACKR4 (Homo sapiens)
- Sequence (Q9NPB9 whole entry): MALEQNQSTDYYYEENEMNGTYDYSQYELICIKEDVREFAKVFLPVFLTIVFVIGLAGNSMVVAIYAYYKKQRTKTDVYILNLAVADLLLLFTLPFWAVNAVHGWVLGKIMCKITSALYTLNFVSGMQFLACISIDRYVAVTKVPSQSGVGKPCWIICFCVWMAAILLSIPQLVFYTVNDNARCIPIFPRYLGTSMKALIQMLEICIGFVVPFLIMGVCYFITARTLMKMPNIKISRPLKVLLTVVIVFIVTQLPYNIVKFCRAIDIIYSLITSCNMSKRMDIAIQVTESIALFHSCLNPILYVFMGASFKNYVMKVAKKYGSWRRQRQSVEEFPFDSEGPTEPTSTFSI
- TEST: Figure S2a opioid peptide screen on chemokine receptors
- Set-up: dose or concentration left out as unconfirmed
- CONDITION INFO: read-out: ACKR4 activity, ctrl+ = 100, Figure S2a; replicate 3
ENDPOINT LABEL: activation (%)
Value expressed in %; do not type the unit.

Lookup result for `CSCC[C@H](NC(=O)[C@H](Cc1ccccc1)NC(=O)CNC(=O)CNC(=O)[C@@H](N)Cc1ccc(O)cc1)C(=O)N[C@@H](CCCNC(=N)N)C(=O)N[C@@H](CCCNC(=N)N)C(=O)N[C@H](C(N)=O)C(C)C` ; measured activation: -0.895

* * *

- SYSTEM: CXCR1 (Homo sapiens, UniProt P25024)
- Construct: expressed in transfected cells
- Sequence (P25024 whole entry): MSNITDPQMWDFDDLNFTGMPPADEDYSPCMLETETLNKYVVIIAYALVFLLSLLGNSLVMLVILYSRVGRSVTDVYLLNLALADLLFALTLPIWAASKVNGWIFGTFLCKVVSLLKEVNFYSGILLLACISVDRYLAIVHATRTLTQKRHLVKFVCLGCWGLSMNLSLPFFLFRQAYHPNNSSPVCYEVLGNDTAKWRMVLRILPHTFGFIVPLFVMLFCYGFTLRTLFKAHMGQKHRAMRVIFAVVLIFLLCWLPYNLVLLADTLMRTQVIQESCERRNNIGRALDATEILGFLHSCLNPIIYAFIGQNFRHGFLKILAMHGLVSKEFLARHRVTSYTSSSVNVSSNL
- TEST: Figure S2a opioid peptide screen on chemokine receptors
- Format: cell-based
- Set-up: dose or concentration left out as unconfirmed
- CONDITION INFO: replicate 1, read-out: CXCR1 activity, ctrl+ = 100
ENDPOINT LABEL: activation (%)
Kindly provide the numeric value in % only, without the unit symbol.

CC[C@H](C)[C@H](NC(=O)[C@H](CCCNC(=N)N)NC(=O)[C@H](CCCNC(=N)N)NC(=O)[C@H](CC(C)C)NC(=O)[C@H](Cc1ccccc1)NC(=O)CNC(=O)CN)C(=O)N[C@@H](CCCNC(=N)N)C(=O)N1CCC[C@H]1C(=O)N[C@@H](CCCCN)C(=O)N[C@@H](CC(C)C)C(=O)N[C@@H](CCCCN)C(=O)N[C@@H](Cc1c[nH]c2ccccc12)C(=O)N[C@@H](CC(=O)O)C(=O)N[C@@H](CC(N)=O)C(=O)N[C@@H](CCC(N)=O)C(=O)O [Dynorphin 2-17]: 0.572
CC(C)C[C@H](NC(=O)[C@H](Cc1ccccc1)NC(=O)CNC(=O)CNC(=O)[C@@H](N)Cc1ccc(O)cc1)C(=O)N[C@@H](CCCN=C(N)N)C(=O)N[C@@H](CCCN=C(N)N)C(=O)N[C@@H](CCC(N)=O)C(=O)N[C@@H](Cc1ccccc1)C(=O)N[C@@H](CCCCN)C(=O)N[C@H](C(=O)N[C@H](C(=O)N[C@H](C(=O)O)[C@@H](C)O)C(C)C)C(C)C [Dynorphin B]: -0.474

Could you now consider this next compound?
Noted for CSCC[C@H](NC(=O)[C@H](Cc1ccccc1)NC(=O)CNC(=O)CNC(=O)[C@@H](N)Cc1ccc(O)cc1)C(=O)N[C@@H](CCCNC(=N)N)C(=O)N[C@@H](CCCNC(=N)N)C(=O)N[C@H](C(N)=O)C(C)C [Adrenorphin] : its activation reads 0.451

Values from paper PMC7305236
